# Test system: MDA-N
# assayName: NCI tumour cell line growth inhibition, 48 h
Recorded TGI for the following compounds

Below are worked cases with known answers.
CC(=O)C(N1CCCCC1)C(O)(C(F)(F)F)C(F)(F)F (configuration not stated)    > 100 µM
OCC1NC(COC2OC(CO)C(O)C(O)C2O)C(O)C(O)C1O (configuration not stated)    > 100 µM
Cc1ccc(Nc2c3c(c(C#N)c4nc5ccccc5n24)CCCC3)cc1    > 100 µM
Cc1cccc(C(C)(C)C)c1NC(=O)C(C#N)C1=C(Cl)C(=O)c2ccccc2C1=O (configuration not stated)    27.4 µM

Measured TGI of C/C=C1/CN2CCC34C(=C(C(=O)OC)C1CC23)Nc1ccc(O)cc14 (configuration not stated) : > 100 µM

Value of TGI reported for the compound "COC(=O)c1cc(-c2ccc3ccccc3c2)[nH]c(=O)c1C#N" is > 100 µM

----------
# Test system: UO-31 renal
# assayName: NCI tumour cell line growth inhibition, 48 h
Documented TGI across a set of molecules

Take a look at these entries with their results.
COC(=O)c1cc(-c2ccc3ccccc3c2)[nH]c(=O)c1C#N    > 100 µM
O=[N+]([O-])c1cc(Br)cc2cc(Cl)cnc12    > 100 µM
O/N=C1/CCC/C1=C\c1ccccc1    > 100 µM
N=c1c2sc3nc4ccccc4n3c2ncn1Cc1ccccc1    > 100 µM
O=C(NC1CCN(Cc2ccccc2)CC1)c1cc(-c2cccnc2)nc2ccc(Cl)cc12    21.4 µM
O=CC(OC(=O)c1ccccc1)C(OC(=O)c1ccccc1)C(COC(c1ccccc1)(c1ccccc1)c1ccccc1)OC(=O)c1ccccc1 (centres undefined)    31.2 µM

The reported value for Nc1nc(N)c2c(n1)NC(c1sc(Cl)nc1Cl)CC(c1ccccc1)=N2 (centres undefined) in terms of TGI is 15.6 µM

What the record says about COC(=O)C(C(=O)C(=O)Nc1ccc(C)cc1)c1nc2ccc([N+](=O)[O-])cc2[nH]c1=O (centres undefined) : TGI is > 100 µM

For reference, reported TGI for "COc1cccc(N/C(C)=C2/CCOC2=O)c1" stands at > 10 µM

----------
# Tested on: A549 NSCLC
# assayName: NCI tumour cell line growth inhibition, 48 h
Measured TGI by item

Solved cases below.
CN1CCN(CCCOc2cccc3nc(Nc4cc(Cl)cc(Cl)c4)ccc23)CC1    3.55 µM
NCCOc1ccc(/C(=C(/Cl)c2ccccc2)c2ccccc2)cc1    31.5 µM
CCN(CC)CC1CCCCN1CC(=O)N1c2cc(Cl)ccc2NC(=O)CC1C (stereo unspecified)    > 100 µM

Entry "c1ccc(-c2cnc(SC(c3ccccc3)c3ccccc3)[nH]2)cc1" , TGI reported as > 100 µM

The molecule identified as CCCC(=O)OCC1OC2OC(C)(C)OC2C2OC(C)(C)OC12 (stereo unspecified) registered its TGI at > 100 µM

Reported TGI of "Clc1ccc(Nc2ncco2)cc1Cl" : > 10 µM

----------
# Tested on: COLO 205 colon
# assayName: NCI tumour cell line growth inhibition, 48 h
reportedEndpoint: TGI (µM)
State the answer as a number, implicitly in µM.

Some entries whose results are on file:
c1ccc(CN2CCC(=NN3CCCCC3)CC2)cc1    99.5
C#CCN(N=O)C(=O)NC(CCCCNC(=O)OCc1ccccc1)C(=O)OCc1ccccc1 (stereo not given)    96.6
NC(N)=NN=c1c(=O)c2ccccc2c1=O    32.4

Consider "CC(=N/NC(=S)N1CCCCCC1)/C(C)=N\NC(=S)N1CCCCCC1" . Its measured TGI is 38.5

----------
# Test system: SF-295 CNS
# assayName: NCI tumour cell line growth inhibition, 48 h
reportedEndpoint: GI50

C[C@@H]1CC[C@H]2[C@@H](C)C(O)O[C@@H]3O[C@]4(C)CC[C@@H]1[C@]32OO4 (some centres undefined)    0.625 µM
O=C1c2c(O)cccc2C(C(=O)CCCCCC(=O)C2c3cccc(O)c3C(=O)c3c(O)cccc32)c2cccc(O)c21    1.48 µM
Cc1cc(F)c(C(=O)Nc2cccc(-c3nncn3C(C)C)n2)cc1-n1cnc(C2CC2)c1    13.3 µM
C=CC(=O)N[C@@H]1CN(c2nc(Nc3cn(C)nc3OC)c3ncn(C)c3n2)C[C@H]1F    38.9 µM
CN(C)c1ccc(C(=S)c2ccc(N(C)C)cc2)cc1    4.73 µM
Cc1nc2ccccn2c1NC(=O)NN1C(=O)CSC1c1ccc(Cl)cc1 (centres undefined)    > 100 µM
COc1ccc(-n2cc(-c3cc(OC)c(OC)c(OC)c3)nc2SCc2ccc(Cl)cc2)cc1OC    > 100 µM
CCn1cnc(C[C@H](NC(=O)[C@H](CCCCNC(=O)Nc2cc(C(F)(F)F)cc(C(F)(F)F)c2)NC(=O)Nc2cc(C(F)(F)F)cc(C(F)(F)F)c2)C(=O)OC)c1    > 10 µM

The compound identified as "CCN(CC)CCNc1c2ccccc2nc2cccc([N+](=O)[O-])c12" registered its GI50 at 0.015 µM

----------
# Tested on: NCI-H226 lung
# assayName: NCI tumour cell line growth inhibition, 48 h
Listed here: items and their measured TGI.

Known results for compounds:
CCCCC(C(=O)C(=O)Nc1ccc(C)cc1C)C(=O)C(C)C (centres undefined)    > 100 µM
CN(C)c1ccc(/C=C/C(=O)c2cc(C(C)(C)C)c(O)c(C(C)(C)C)c2)cc1    > 65.9 µM
O=C(NC1CCN(Cc2ccccc2)CC1)c1cc(-c2cccnc2)nc2ccc(Cl)cc12    50.3 µM
O=C1/C(=C/c2cccnc2)SC(=S)N1Cc1ccco1    92 µM
COC(=O)C(=O)C(CC(=O)Nc1cc(Cl)ccc1Cl)C(=O)OC (centres undefined)    > 100 µM

Reported NCI-H226 lung TGI for item "O=S(=O)(O)c1ccc2c(N=Nc3cccc4ccccc34)c(O)ccc2c1" was > 100 µM

Form: item "CC(=O)N[C@H](C)[C@@H](O)[C@@H](C)[C@@H]1OC(=O)/C=C/C=C(C)\C=C\[C@]2(C)C[C@@H](NS(C)(=O)=O)C=C[C@@H]2/C=C(C)/C=C/[C@H]1C" ; test system NCI-H226 lung; TGI: > 43.5 µM

# TGI measured on NCI-H226 lung for item "C[C@@H](Nc1nc(N[C@H](C)C(F)(F)F)nc(-c2cccc(Cl)n2)n1)C(F)(F)F" = > 100 µM

Log: NCI-H226 lung, compound "Oc1ccc2ccccc2c1CCc1c(O)ccc2ccccc12" , TGI = 33.2 µM

----------
# Test system: SK-OV-3 ovarian
# assayName: NCI tumour cell line growth inhibition, 48 h
reportedEndpoint: GI50

Worked set:
Clc1ccc(-c2cc(-c3ccccc3)nc(N3CCN(CCCNc4ccnc5cc(Cl)ccc45)CC3)n2)cc1    1.74 µM
CCOC(=O)/C(=C/CC/C(C)=C/CC/C(C)=C/CCc1ccoc1)CC(=O)N1CCCCC1    8.27 µM
CNC(=O)c1cc(Oc2ccc3nc(NC(=O)Nc4ccc(CN5CCOCC5)c(C(F)(F)F)c4)sc3c2)ccn1    2.18 µM

Record "C1=N[C@]23C(=N[C@H](N=C2NCc2ccco2)[C@]24N=CNC2=N[C@H]3N=C4NCc2ccco2)N1" , field GI50: > 100 µM

Memo: Nc1nc(=O)n(C2CC(O)C(CO)O2)cc1F (stereo unspecified) , reported GI50: > 100 µM

Lab note: measured GI50 of "COc1ccc(C(=O)/C=C/c2sc(Cl)nc2Cl)cc1" was 7.68 µM

Summary for this compound, "CN(C)c1ccc(C(=S)c2ccc(N(C)C)cc2)cc1" : GI50 is 10.9 µM

----------
# Test system: A549 NSCLC
# assayName: NCI tumour cell line growth inhibition, 48 h
reportedEndpoint: TGI

Answered examples (2):
COc1cc(/C=C/C(=O)c2cccc3ccccc23)cc(OC)c1OC    37 µM
C[C@@H]1C[C@H]2OC(=O)[C@@]3(C)CCC[C@@](C)([C@@H]23)[C@@]1(O)CCc1ccoc1    > 100 µM

# TGI (compound: "Clc1ccc(-c2cc(-c3ccccc3)nc(N3CCN(CCCNc4ccnc5cc(Cl)ccc45)CC3)n2)cc1" ) is 3.75 µM

"O=[N+]([O-])c1cc(Br)cc2cc(Cl)cnc12" has a reported TGI of > 100 µM

response.value for "Cc1c2cnccc2c(C)c2c1c1cc(O)ccc1n2C(C)C" (field: TGI) = 8.17 µM

----------
# System: SNB-75 CNS
# assayName: NCI tumour cell line growth inhibition, 48 h
Listing: TGI of selected compounds
The response must be a number in µM with no trailing unit.

TGI in this record for O=C(CCC(=O)Nc1ccccc1C(F)(F)F)N/N=C1\C(=N\NC(=O)CCC(=O)Nc2ccccc2C(F)(F)F)C(c2ccc3c(c2)OCO3)Oc2ccccc21 (centres undefined) : 43.2

Entry Cc1cc(=O)oc2c(C3=NN(C=O)C(c4ccccc4)C3)c(O)ccc12 (centres undefined) ; TGI = 17.2

Note to self: TGI recorded for "N/C(=N\N=C\c1cc2ccccc2s1)c1cnccn1" was 79.3
